- SYSTEM NAME: CK1γ3 (Homo sapiens, UniProt Q9Y6M4)
- Construct: purchased Carna Biosciences
- Sequence (Q9Y6M4 whole entry): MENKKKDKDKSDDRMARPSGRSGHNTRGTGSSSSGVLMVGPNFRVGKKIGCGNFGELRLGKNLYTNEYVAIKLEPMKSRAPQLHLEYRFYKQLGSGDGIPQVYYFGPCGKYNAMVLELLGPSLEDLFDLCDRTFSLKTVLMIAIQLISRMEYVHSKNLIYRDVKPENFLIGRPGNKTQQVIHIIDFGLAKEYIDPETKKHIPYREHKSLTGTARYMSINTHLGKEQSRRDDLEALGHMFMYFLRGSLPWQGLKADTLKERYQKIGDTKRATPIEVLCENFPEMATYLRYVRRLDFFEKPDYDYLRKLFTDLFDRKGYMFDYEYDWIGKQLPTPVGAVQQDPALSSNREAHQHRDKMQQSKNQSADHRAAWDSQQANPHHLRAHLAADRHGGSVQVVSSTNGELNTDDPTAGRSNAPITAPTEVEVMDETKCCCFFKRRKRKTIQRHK
- TEST NAME: Kinase panel profiling at 1 µmol/L (mobility shift assay, Carna)
- Assay type: biochemical
- CONDITION DETAILS: 1 µmol/L of BTK inhibitor
ASSAY ENDPOINT: Percentage inhibition of kinase enzyme activity
Put your answer as a value accompanied by its unit after it.

For CK1γ3 (Homo sapiens, UniProt Q9Y6M4), provide Percentage inhibition of kinase enzyme activity of `CC#CC(=O)N1CCC[C@H]1c1nc(-c2ccc(C(=O)Nc3ccccn3)cc2)c2c(N)nccn12` please.
-14.72%

For CK1γ3 (Homo sapiens, UniProt Q9Y6M4), provide Percentage inhibition of kinase enzyme activity of `O=C(c1ccc(Oc2ccccc2)cc1Cl)c1c[nH]c2ncnc(N[C@@H]3CC[C@@H](CO)OC3)c12` please.
3.75%

Observed Percentage inhibition of kinase enzyme activity on CK1γ3 (Homo sapiens, UniProt Q9Y6M4) for `COc1ccc(F)cc1C(=O)NCc1ccc(-c2nn([C@@H](C)C(F)(F)F)c(N)c2C(N)=O)cc1` , please.
-0.93%

Form field - read-out: Percentage inhibition of kinase enzyme activity; system: CK1γ3 (Homo sapiens, UniProt Q9Y6M4); submitted item: `C=CC(=O)N1CCC[C@@H](n2nc(-c3ccc(Oc4ccccc4)cc3)c3c(N)ncnc32)C1`
3.83%
